Listed below: pIC50 values for each entry.
- test target: recombinant human aldose reductase (Homo sapiens)
- Construct: made in house; host or cells: Baculovirus-insect cell system
- run description: Aldose reductase inhibition (decrease with time in absorbance at 340 nm, NADPH / DL-glyceraldehyde)
- Format: biochemical
- condition set: 0.1M phosphoric acid buffer, 25°C, absorbance 340 nm, read-out: IC₅₀
pIC50: −log10 of the molar value.

compound structure string | limit qualifier | pIC50
COC(=O)c1cc2c([nH]1)c1c(C(=O)OC)cc(C(=O)O)nc1c1ncoc21 | = | 6.24
CCOC(=O)c1cc(C(=O)OCC)c2c(n1)c1ncoc1c1cc(C(=O)OC)[nH]c12 | < | 4.00
CCCCCNC(=O)c1cc(C(=O)O)nc2c3ncoc3c3cc(C(=O)OC)[nH]c3c12 | = | 6.72
CCCCCNC(=O)c1cc(C(=O)O)nc2c3ncoc3c3cc(C(=O)O)[nH]c3c12 | = | 6.59
CCCCCNC(=O)c1cc(C(=O)NCCCCC)c2c(n1)c1ncoc1c1cc(C(=O)NCCCCC)[nH]c12 | = | 4.11
COC(=O)c1cc(C(=O)O)c2c(n1)c1ncoc1c1cc(C(=O)O)[nH]c12 | = | 5.54
COC(=O)c1cc(C(=O)OC)c2c(n1)c1ncoc1c1cc(C(=O)OC)[nH]c12 | < | 4.00
